- Assay method text: Metabolic stability in human liver microsomes assessed as half life at […] incubated for 2 hrs in presence of NADPH by LC-MS/MS analysis
- Type: ADME, Microsome
Attribute measured: half-life (min)

a. CS(=O)(=O)c1ccc(CN2CCN(C(=O)c3ccc(NC4CCCCC4)c(NCc4ccccc4)c3)CC2)cc1
b. CCOC(=O)c1ccc(NC2CCCCC2)c(N)c1
Ask: Select the item with the higher value of half-life from the options a and b listed. Identify your selection by its label.
Result: a
(a: 50.2 min, b: 16.8 min)

###

- Assay method text: Solubility of compound in PBS buffer at pH 7.4 at 3.13 to 200 uM incubated for 2 hrs by turbidity based assay
- Type: physicochemical
- Cond: dose 3.13-200 µM
Attribute measured: solubility kinetic at 2 h (µM)

{"columns": ["Structure", "Output unit", "solubility kinetic at 2 h"],
 "data": [
  ["CS(=O)(=O)c1ccc(CN2CCN(C(=O)c3ccc(NC4CCCCC4)c(NCc4ccccc4)c3)CC2)cc1", "µM", 28.6],
  ["O=C(c1ccc(NC2CCCCC2)c(NCc2ccccc2)c1)N1CCN(Cc2ccc(-c3ccccc3)c(-c3ccccc3)c2)CC1", "µM", 22.2],
  ["O=C(c1ccc(NC2CCCCC2)c(NCc2ccccc2)c1)N1CCN(Cc2ccncc2)CC1", "µM", 20],
  ["CCOC(=O)c1ccc(NC2CCCCC2)c(NCc2ccccc2)c1", "µM", 6.2]
]}

1. O=C(c1ccc(NC2CCCCC2)c(NCc2ccccc2)c1)N1CCN(Cc2ccc(F)cc2Br)CC1
2. COc1ccc(Br)c(CN2CCN(C(=O)c3ccc(NC4CCCCC4)c(NCc4ccccc4)c3)CC2)c1
Ask: Name the one with the greater solubility kinetic at 2 h value, either 1 or 2 as given. Response format: the label of the selected entry.
Result: 1

###

- Tested on: HUVEC
- Assay method text: Anti-ferroptosis activity in HUVEC cells assessed as inhibition of erastin-induced ferroptosis by measuring lethality suppression incubated for 24 hrs by SRB assay
- Assay type: functional, cell-based
- Cond: Homo sapiens
EC50 overview
The figure you give is taken to be in nM; do not add the unit.

Example molecules with recorded EC50:
{"columns": ["Structure", "Attribute measured", "Output unit", "Meas value"],
 "data": [
  ["COc1ccc(Br)c(CN2CCN(C(=O)c3ccc(NC4CCCCC4)c(NCc4ccccc4)c3)CC2)c1", "EC50", "nM", 680],
  ["O=C(c1ccc(NC2CCCCC2)c(NCc2ccccc2)c1)N1CCN(Cc2ccncc2)CC1", "EC50", "nM", 790],
  ["O=C(c1ccc(NC2CCCCC2)c(NCc2ccccc2)c1)N1CCN(Cc2ccc(F)cc2Br)CC1", "EC50", "nM", 730],
  ["CS(=O)(=O)c1ccc(CN2CCN(C(=O)c3ccc(NC4CCCCC4)c(NCc4ccccc4)c3)CC2)cc1", "EC50", "nM", 500]
]}

Ask: Requested read-out EC50, target or system HUVEC, entry `O=C(c1ccc(NC2CCCCC2)c(NCc2ccccc2)c1)N1CCN(Cc2ccc(-c3ccccc3)c(-c3ccccc3)c2)CC1`
Result: 610
